Tested on: T1, AF9 YEATS domain (human, UniProt P42568 1-138)
T1 sequence (looked up): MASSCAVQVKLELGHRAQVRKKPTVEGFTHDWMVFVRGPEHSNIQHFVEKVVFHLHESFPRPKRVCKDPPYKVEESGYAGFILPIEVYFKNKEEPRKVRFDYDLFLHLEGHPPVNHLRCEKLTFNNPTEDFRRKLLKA
Assay: AlphaScreen or HTRF
No end group written: not given here. *: point of attachment. Oxazole(5-CO) = O=C(c1cnco1)*; Crotonyl(E) = C/C=C/C(=O)*; 2Furoyl = O=C(c1ccco1)*; Butyryl = CCCC(=O)*
Attribute: fold lower potency (IC50) toward AF9 YEATS than toward ENL YEATS
Numbers only; they are read as fold.

// solved cases for fold lower potency (IC50) toward AF9 YEATS than toward ENL YEATS follow
1) YDVYCYK(Oxazole(5-CO))-NH2 [ENL-S1o]: 23
2) YDVYCYK(Butyryl)-NH2 [ENL-S1]: 4
3) YDVYCYK(Crotonyl(E))-NH2 [ENL-S1c]: 18

Consider the additional binder presented here.
Fill in fold lower potency (IC50) toward AF9 YEATS than toward ENL YEATS for record YDVYCYK(2Furoyl)-NH2 [ENL-S1f]
7.7
